TARGET ENTITY: human D3 receptor (Homo sapiens, UniProt P35462)
Construct: host or cells: CCL 1.3 mouse fibroblasts
Sequence (P35462 whole entry): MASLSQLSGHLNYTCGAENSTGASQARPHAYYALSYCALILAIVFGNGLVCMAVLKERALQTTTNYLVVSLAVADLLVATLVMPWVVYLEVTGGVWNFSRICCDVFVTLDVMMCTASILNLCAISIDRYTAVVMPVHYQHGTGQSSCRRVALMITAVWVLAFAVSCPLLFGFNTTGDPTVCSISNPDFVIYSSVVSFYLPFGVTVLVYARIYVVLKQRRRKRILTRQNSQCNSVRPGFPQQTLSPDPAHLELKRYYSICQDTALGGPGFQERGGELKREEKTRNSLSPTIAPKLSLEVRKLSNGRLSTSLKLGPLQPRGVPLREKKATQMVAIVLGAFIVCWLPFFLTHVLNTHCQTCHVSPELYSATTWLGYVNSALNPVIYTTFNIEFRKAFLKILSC
ASSAY EXPLANATION: D3 binding assay (125I-iodosulpiride)
ASSAY SETUP: cloned human D3 receptor in CCL 1.3 mouse fibroblast membranes, 0.1 nM 125I-iodosulpiride; read-out: D3 125I-sulpiride Ki
pKi: −log10 of the molar value.
MEASUREMENT KIND: pKi

Solved cases below.
Endpoint output: pKi of Cn1c(N)nnc1SCCCN1CCN(c2cc(C(C)(C)C)cc(C(C)(C)C)c2)CC1 . Value?
8.06

Endpoint output: pKi of CCn1c(N)nnc1SCCCN1CCN(c2cccc(C(F)F)c2)CC1 . Value?
8.74

(a) CC(=CCN1CCN(c2cc(C(F)(F)F)nc(C(C)(C)C)n2)CC1)CSc1nnc(N)n1C
(b) CNc1nnc(SCCCN2CCN(c3cccc(C(F)F)c3)CC2)n1C
(c) Cc1cc(N2CCN(CCCSc3nnc(N)n3C)CC2)nc(-n2cccc2)n1
(d) Cc1nnc(/C=C/CN2CCN(c3ccccc3)CC2)n1-c1ccccc1 [reference compound]
Rank descending by pKi. Give the order by naming the labels one after another as requested.
b, c, a, d
(b: 8.77, c: 8.09, a: 7.87, d: 5.39)

###

TARGET ENTITY: human D3 receptor (Homo sapiens)
Construct: host or cells: CCL 1.3 mouse fibroblasts
ASSAY EXPLANATION: D3 binding assay (125I-iodosulpiride)
ASSAY SETUP: ratio of D2 (3H-spiperone) Ki to D3 (125I-sulpiride) Ki
Protocol: Cloned human D3 receptor-expressing CCL 1.3 mouse fibroblasts obtained from Res. Biochemicals Internat. One Strathmore Rd., Natick, Mass. 01760-2418 USA, were used for the binding studies. The D3-expressing cells where grown in RPMI-1640 containing 10% fetal calf serum (GIBCO No. 041-32400 N); 100 U/ml penicillin and 0.2% streptomycin (GIBCO BRL, Gaithersburg, Md., USA). […] The Ki values were determined by non-linear regression analysis using the LIGAND program.
MEASUREMENT KIND: Selectivity KiD2/KiD3

Solved cases below.
Endpoint output: Selectivity KiD2/KiD3 of CC(=CCN1CCN(c2cc(C(F)(F)F)nc(C(C)(C)C)n2)CC1)CSc1nnc(N)n1C [Example 42] . Value?
182

Endpoint output: Selectivity KiD2/KiD3 of Cn1c(N)nnc1SCCCN1CCN(c2cc(C(C)(C)C)cc(C(C)(C)C)c2)CC1 [Example 15] . Value?
58

Endpoint output: Selectivity KiD2/KiD3 of Cn1c(N)nnc1SCCCN1CCN(c2cccc(C(F)(F)F)c2)CC1 [Example 10] . Value?
49

Endpoint output: Selectivity KiD2/KiD3 of CNc1nnc(SCCCN2CCN(c3cccc(C(F)F)c3)CC2)n1C [Example 37] . Value?
176

(P) Cc1cc(N2CCN(CCCSc3nnc(N)n3C)CC2)nc(-n2cccc2)n1 [Example 41]
(Q) CCn1c(N)nnc1SCCCN1CCN(c2cccc(C(F)F)c2)CC1 [Example 24]
Please indicate which item has the smaller measured Selectivity KiD2/KiD3: P versus Q The response must carry the label of the picked entry.
Q
(Q: 67, P: 185)

Ref: patent US6403593B1
